Attribution: paper PMC8234231

test system: OCT2 and MATE1; assay: Inhibition of basolateral-to-apical transcellular transport of ASP+ in OCT2/MATE1 double-transfected MDCK cells (Transwell); details: human
quantity: inhibition at 120 min, 1 μM (%)
Numeric answer only, unit % assumed.

[in] Fill in inhibition at 120 min, 1 μM for record CCc1nc(N)nc(N)c1-c1ccc(Cl)cc1
[out] 36

###

test system: OCT2 and MATE1; assay: Inhibition of basolateral-to-apical transcellular transport of ASP+ in OCT2/MATE1 double-transfected MDCK cells (Transwell); conditions: human, probe ASP+ (25 μM, basolateral chamber)
quantity: inhibition at 120 min, 50 μM (%)
Numeric answer only, unit % assumed.

[in] State measured inhibition at 120 min, 50 μM of the molecule CN/C(=N/CCSCc1nc[nH]c1C)NC#N with OCT2 and MATE1.
[out] 40

###

system: OCT2 and MATE1; experiment: Inhibition of basolateral-to-apical transcellular transport of ASP+ in OCT2/MATE1 double-transfected MDCK cells (Transwell); details: human, probe ASP+ (25 μM, basolateral chamber)
quantity: inhibition at 120 min, 5 μM (%)
Numeric answer only, unit % assumed.

[in] Fill in inhibition at 120 min, 5 μM for record CN/C(=N/CCSCc1nc[nH]c1C)NC#N
[out] 18
